Assay: aqueous solubility in de-ionized water
Format: physicochemical
Settings: water, 25 °C, water, thermodynamic from solid; read-out: solubility in water

COMPOUND	UNIT_DESCRIPTOR	solubility
CCC(O)(CC)C(=O)N[C@H]1Cc2ccc3c(c2)[C@]24C5=C(N=C(O5)[C@H](C(C)C)NC1=O)c1ncc(o1)-c1cn(P(=O)([O-])O)c5cccc(c15)-c1cccc2c1NC4O3.[Na+] (stereo partly shown) [Compound 31]	mg/mL	20
